pKd: −log10 of the molar value.
# EthR (Mycobacterium tuberculosis): pKd values follow
# Sequence (P9WMC1 whole entry, looked up): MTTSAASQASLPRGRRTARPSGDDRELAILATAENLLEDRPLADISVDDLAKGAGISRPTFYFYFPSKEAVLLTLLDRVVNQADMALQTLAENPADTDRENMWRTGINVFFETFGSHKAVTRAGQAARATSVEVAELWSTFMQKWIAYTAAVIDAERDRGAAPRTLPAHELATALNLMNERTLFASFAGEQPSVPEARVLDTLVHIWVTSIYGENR

{"columns": ["Molecule", "pKd"],
 "data": [
  ["O=C(CCC1CCCC1)N1CCCC1 [Compound 1]", 4.92],
  ["N#Cc1ccc(N2CCC(CCC(=O)N3CCCC3)CC2)cc1 [Compound 15]", 6.00],
  ["O=C(NCC1CCN(c2ncccn2)CC1)N1CCCC1 [Compound 22]", 4.92],
  ["CNCc1ccc(N2CCC(CCC(=O)N3CCCC3)CC2)cc1 [Compound 5]", 5.30],
  ["O=C(NCC1CCN(c2ccccn2)CC1)N1CCCC1 [Compound 21]", 4.62],
  ["CN(Cc1ccc(N2CCC(CCC(=O)N3CCCC3)CC2)cc1)C(=O)OC(C)(C)C [Compound 14]", 5.52]
]}

meta.source: paper PMC4759522
